# Test system: Caco-2
# test: cell viability relative to DMSO; higher = less toxic
# run_conditions: 72 h; 100 nM
Recorded cell viability, one value per entry.
All answers are understood in %, so give the number only.

| molecule | system_name | assay_value |
| --- | --- | --- |
| Cn1ccc2cc(NC(=O)Nc3cccnc3)ccc21 | Caco-2 | 88.7 |
| CC(=O)c1ccc(NS(C)(=O)=O)c(Oc2ccc(F)cc2F)c1 [FK-3311] | Caco-2 | 96.9 |

[in] Returns the measured cell viability for the input molecule. Input: CO/N=C(\C(=O)N[C@@H]1C(=O)N2C(C(=O)O)=C(CSc3nc(C)c(CC(=O)O)s3)CS[C@H]12)c1csc(N)n1 [cefodizime]
[out] 105

[in] And the next one, N#CCNC(=O)c1ccc(-c2ccnc(Nc3ccc(N4CCOCC4)cc3)n2)cc1 [cyt387] ?
[out] 101

[in] And for COC(=O)c1ccc2c(c1)NC(=O)/C2=C(\Nc1ccc(N(C)C(=O)CN2CCN(C)CC2)cc1)c1ccccc1 [nintedanib] ?
[out] 102

[in] Repeat with CN(C[C@@H]1COCCO1)S(=O)(=O)Nc1ccc2ccc3ncc(-c4cnn(C)c4)cc3c(=O)c2c1 [MK-2461]
[out] 94.5

[in] Also, O=C(/C=C/c1cccc(F)c1)NC1CC1 [cinflumide] please.
[out] 95.5

[in] Moving on to Cc1nc(C#Cc2ccnc(Cl)c2)c(C)n1-c1ccc(OC(F)(F)F)cc1 [CTEP]
[out] 86.9

[in] Another molecule to check: Cc1cc(C)nc(SCC(=O)Nc2ncc(Cc3cccc4ccccc34)s2)n1 [SirReal-2]
[out] 93.4

----------
# Tested on: HepG2
# test: cell viability relative to DMSO; higher = less toxic
# run_conditions: 72 h; 1 nM
outcome_measure: cell viability (%)
All answers are understood in %, so give the number only.

[in] # query: cell viability of entry `FC(F)(F)Oc1ccc2nc(-c3ccc(OCCOCCOc4ccc(-c5nc6ccc(OC(F)(F)F)cc6[nH]5)nc4)cn3)[nH]c2c1`
[out] 94.7

[in] What would you report for `C[C@H](N)[C@H](O)c1ccc(O)c(O)c1` ?
[out] 105

[in] Please do the same for COc1cc(C(=O)N(CC[C@H]2CCCN2C)C/C(C)=C/c2ccccc2F)cc(OC)c1OC (racemic) as well.
[out] 103

[in] Same lookup for `CC1(C)C(=O)NC2=C1C(=O)C(=O)c1ccccc12` , please.
[out] 97.5

[in] Record: `Cc1cc(C)c(CNC(=O)c2cc(-c3ccc(CN4CCOCC4)cc3)cc3c2cnn3C2CCCC2)c(=O)[nH]1`
[out] 108

----------
# System: Calu-3
# test: cell viability relative to DMSO; higher = less toxic
# run_conditions: 72 h; 10 nM
outcome_measure: cell viability
Answer with the figure and its unit, nothing else.

Check out these entries, answers already filled in.
| structure_string | system_name | cell viability |
| --- | --- | --- |
| Cc1[nH]c(=O)c(C#N)cc1-c1ccncc1 | Calu-3 | 89.1% |
| Cc1c(O)cccc1C(=O)N[C@@H](CSc1ccccc1)[C@H](O)CN1C[C@H]2CCCC[C@H]2C[C@H]1C(=O)NC(C)(C)C | Calu-3 | 87.1% |

[in] State its cell viability on Calu-3: `CCN(CC)CCCCNc1ncc2cc(-c3cc(OC)cc(OC)c3)c(NC(=O)NC(C)(C)C)nc2n1`
[out] 98.9%

[in] What would you report for `CN(C)CCN1C(=O)c2cccc3cc(NC(N)=O)cc(c23)C1=O` ?
[out] 105%

[in] Do the same for `Cc1sc(N)c(C(=O)c2cccc(C(F)(F)F)c2)c1C` please
[out] 91.9%

----------
# System: U2OS
# test: cell viability relative to DMSO; higher = less toxic
# run_conditions: 72 h; 100 nM
outcome_measure: cell viability (%)
Expressed in %, but write only the number.

| molecule | cell viability / % |
| --- | --- |
| CCC(CC)CC1(C(=O)Nc2ccccc2SC(=O)C(C)C)CCCCC1 | 108 |
| Cc1ccc2c(c1)=C(c1ccccc1)C(C1=NN(C(=O)CCC(=O)O)C(c3ccc(Br)cc3)C1)C(=O)N=2 (centres undefined) | 97.4 |
| CCOC(=O)[C@H]1O[C@@H]1C(=O)N[C@@H](CC(C)C)C(=O)NCCC(C)C | 94.7 |
| Cc1[nH]cnc1-c1ccc(Cl)cc1 | 97.5 |

[in] May I ask what cell viability has been recorded for `COc1cc2ncnc(Nc3ccc(F)c(Cl)c3)c2cc1NC(=O)/C=C/CN1CCCCC1` ?
[out] 94.5

[in] Similarly, `CCn1c(=O)[nH]c2cc(Cl)c(Cl)cc21` ?
[out] 98.3

[in] Also CC(C)(C)NCC(O)c1cc(Cl)c(N)c(Cl)c1 (centres undefined) , if possible.
[out] 105

[in] Here is the next molecule: `CNC(=O)CN1CCC(Oc2cc3c(Nc4cccc(Cl)c4F)ncnc3cc2OC)CC1`
[out] 93.6

[in] Ok, now `C1=C2CCCN[C@H]2[C@@H]2C[C@H]1[C@H]1CCCCN1C2`
[out] 92.8

[in] What about this molecule? `CCCCn1c(-c2ccccc2)nc(-c2ccccc2)c1CN(Cc1ccc2c(c1)OCO2)Cc1ccc2c(c1)OCO2`
[out] 91.4

----------
Collected cell viability values appear next to each entry.
# Test system: HepG2
# test: cell viability relative to DMSO; higher = less toxic
# run_conditions: 72 h; 10000 nM
Field format: number, assumed %, no unit text.

Past entries and their recorded results:
| compound | cell viability [%] |
| --- | --- |
| O=C(CN1CCN(Cc2ccc3c(c2)OCO3)CC1)N1c2ccccc2Sc2ccccc21 | 90.3 |
| O=[N+]([O-])/C=C/c1ccc2c(c1)OCO2 | 91.3 |

With those in mind, consider the next compound.
[in] Requested field: cell viability. Item: `Cc1cc(C2CCCCC2)n(O)c(=O)c1`
[out] 27.2

----------
# System: Calu-3
# test: relative viability EC50 (midpoint between 100% and the lowest measured viability); higher = less toxic
# run_conditions: 72 h
relative viability EC50 overview

| compound | relative viability EC50 |
| --- | --- |
| O=C(CO)[C@@H](O)[C@@H](O)[C@H](O)CO [tagatose] | > 10 µM |
| CC(C)CN(C[C@@H](OP(=O)(O)O)[C@H](Cc1ccccc1)NC(=O)O[C@H]1CCOC1)S(=O)(=O)c1ccc(N)cc1 [fosamprenavir] | > 10 µM |
| Cc1cc(OCc2nnc(SC3CCCC3)n2-c2cccnc2)ccc1-c1ccc(S(C)(=O)=O)cc1 [NMS-873] | 1.85 µM |
| O=C(Nc1ccc(C(=O)O)c(O)c1)c1ccccc1 [benzoylpas] | > 10 µM |
| C[n+]1c2cc(N)ccc2cc2ccc(N)cc21 [acriflavinium] | 2.62 µM |

[in] Consider the compound Cc1nnc2n1-c1sc(CCC(=O)N3CCOCC3)cc1C(c1ccccc1Cl)=NC2 [apafant] and give its measured relative viability EC50.
[out] > 10 µM

[in] What would you report for COc1cc2c(cc1OC)-c1cc3ccc(OC)c(OC)c3c[n+]1CC2 [palmatine-chloride] ?
[out] > 10 µM

[in] Record: CCCCCCCCCC(=O)O[C@H]1CC[C@H]2[C@@H]3CCC4=CC(=O)CC[C@@H]4[C@H]3CC[C@]12C [Nandrolone decanoate]
[out] > 10 µM

[in] Could you do the same for C=CCN1CCCC1CNC(=O)c1cc2nn[nH]c2cc1OC (stereo unspecified) [alizapride] , please?
[out] > 10 µM

[in] Next entry: c1ccc2c(c1)CCC[C@H]2Nc1nc2ccccc2[nH]1 [NS-8593]
[out] > 10 µM

[in] Entry to check: CNC(=N)NCCC[C@H](N)C(=O)O [targinine]
[out] > 10 µM

----------
# Test system: Vero E6
# test: cell viability relative to DMSO; higher = less toxic
# run_conditions: 72 h; 10000 nM
outcome_measure: cell viability (%)
Answer in %, number only, no unit symbol.

Below, 3 molecules whose answers are already recorded.
| structure_string | cell viability / % |
| --- | --- |
| CN(C)CCCCC(=O)Nc1ccc(NC(=S)NC(=O)c2ccc(C(C)(C)C)cc2)cc1 | 27.8 |
| Cc1nc(Nc2ncc(C(=O)Nc3c(C)cccc3Cl)s2)cc(N2CCN(CCO)CC2)n1 | 16.9 |
| O=C(CN1CCN(Cc2ccc3c(c2)OCO3)CC1)N1c2ccccc2Sc2ccccc21 | 84.7 |

Turning now to a further record.
[in] Value lookup for cell viability; key = `O=C(O)c1ccc(N2C(=O)/C(=C/c3ccc(-c4ccc([N+](=O)[O-])cc4)o3)C=C2c2ccccc2)cc1`
[out] 99.3

----------
Let's look at some compounds and their measured cell viability.
# Tested on: HepG2
# test: cell viability relative to DMSO; higher = less toxic
# run_conditions: 72 h; 10 nM
A bare number is not enough; add the unit after it.

Sample answers from the record:
| compound | cell viability |
| --- | --- |
| Nc1ccn([C@H]2CO[C@@H](CO)S2)c(=O)n1 | 105% |
| C[C@H](N)C(=O)N[C@@]1(C(=O)O)C[C@@H](Sc2nnc[nH]2)[C@H]2[C@H](C(=O)O)[C@H]21 | 94.7% |
| CC(C)(COP(=O)(O)OP(=O)(O)OC[C@H]1O[C@@H](n2cnc3c(N)ncnc32)[C@H](O)[C@@H]1OP(=O)(O)O)[C@@H](O)C(=O)NCCC(=O)NCCS | 96.6% |

[in] Give its cell viability value. Item: CC1(CN2CCC(n3c(=O)[nH]c4ccccc43)CC2)OCc2ccccc2-n2cccc21 (stereo not drawn) [zaldaride]
[out] 96.4%

[in] Now the compound `CC(C)CN(C[C@@H](OP(=O)(O)O)[C@H](Cc1ccccc1)NC(=O)O[C@H]1CCOC1)S(=O)(=O)c1ccc(N)cc1`
[out] 106%

[in] And for `COc1ccc(Cc2nccc3cc(OC)c(OC)cc23)cc1OC` ?
[out] 109%

[in] Next: `Nc1ccc(C(=O)Nc2cccc(-c3nc(N4CCOCC4)c4oc5ncccc5c4n3)c2)cn1`
[out] 99.6%

[in] One more compound: COc1ccc(Cl)cc1C(=O)NCCc1ccc(C(=O)O)cc1 [meglitinide]
[out] 106%
